measured.target: T1, human CD3 (human, UniProt P07766 23-207; P04234 22-171; P09693 23-182)
T1 construct: whole, on cells; also called hCD3; CD3 on Jurkat cells
T1 sequence (P07766 23-207, chain 1 of 3): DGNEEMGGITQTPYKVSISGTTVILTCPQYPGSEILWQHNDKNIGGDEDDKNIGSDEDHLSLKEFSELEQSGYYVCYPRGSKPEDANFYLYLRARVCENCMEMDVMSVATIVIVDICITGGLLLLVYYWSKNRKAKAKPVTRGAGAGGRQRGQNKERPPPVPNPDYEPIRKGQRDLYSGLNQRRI
T1 sequence (P04234 22-171, chain 2 of 3): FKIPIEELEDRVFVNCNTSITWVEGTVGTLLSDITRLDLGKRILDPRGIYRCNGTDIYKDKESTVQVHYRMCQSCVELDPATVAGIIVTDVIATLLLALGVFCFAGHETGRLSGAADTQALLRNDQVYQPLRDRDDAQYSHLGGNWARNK
T1 sequence (P09693 23-182, chain 3 of 3): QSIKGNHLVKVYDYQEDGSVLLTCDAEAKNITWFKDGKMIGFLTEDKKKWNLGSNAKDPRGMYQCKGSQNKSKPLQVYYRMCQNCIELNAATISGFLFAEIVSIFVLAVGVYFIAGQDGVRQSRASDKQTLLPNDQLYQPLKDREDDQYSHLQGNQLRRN
experiment.notes: FACS on HEK293T-hCD3mix cells; also: test concentration or dose not given here
reported.endpoint: FACS MFI

# input Can you share its FACS MFI? I mean this binder: 3-C6-C11-F12 (antibody, V domains shown, mouse monoclonal (hybridoma) antibody) VH: EVHLVESGGGLVQPGGSRKLSCAGSGFTFSTYGMHWVRQAPEKGLEWVAYISNGGSTIYYADSVKGRFTISRDNPNDTLFLHMTSLGSEDTAMYYCARPTWGGFAYWGQGTLVTVSA VL: DIVLTQSPLSLPVSLGDQASISCRSSQSIAHSNGDTYLEWYLQNPGQSPKLLIYKVSNRISGVPDRFSGSGSGTDFTLKISRVEAEDLGVYYCFQGSHVPYTFGGGTKLEIK
# output 21800 MFI

// next item, FACS MFI requested
# input For the binder 2-F12-A6-G2 (antibody, V domains shown, mouse monoclonal (hybridoma) antibody) VH: EVQLVESRPGLVAPSQSLSITCTVSGFSLTSYGVSWVRQPPGKGLEWLGVIWGDGNTNYNSDLKTSLSISKDNSKSQVFLKLDSLQTDDTATYYCAKVSYWYFDVWGTGTTVTVSS VL: DIQLTQPPASLSASVGETVTITCRASENIYSYLAWYQQKQGKSPQLLVYNAKTLPEGVPSRFSGSGSGTQFSLKINSLQPEDFGTYYCQHHYGTPPTFGTGTKLELK , what FACS MFI is on record?
# output 53800 MFI
